Test system: Es-2
Test: Primary qHTS to identify gynecologic anti-cancer compounds using libraries of approved drugs and bioactive compounds (AID 1345084); note: nearly all actives have a fitted effect of over 55% in size
Details: Gynecologic cancer cell panel viability, ATPlite luminescence, 48 h; series mostly up to 57.5 µM
Records with an inconclusive call do not appear. The source made the active and inactive calls. Calls come from the whole dose curve; as a rule, active = well fitted cell-killing curve with a large enough effect; inconclusive = small, poorly fitted or top-dose-only effect, or effect the other way; inactive = flat fitted curve, though single readings scatter.
READOUT_KIND: activity change, negative = cytotoxicity

Some compounds with recorded activity change, negative = cytotoxicity:
> print(dat)
                                   compound  observed
1                     CC12CCC(CC1)C(C)(C)O2  inactive
2     COc1ccc(S(=O)(=O)Nc2nnc(CC(C)C)s2)cc1  inactive
3  NS(=O)(=O)c1cc2c(cc1C(F)(F)F)NC(Cc1ccccc1)NS2(=O)=O (stereo not drawn)  inactive
4                       Nc1cc(=O)[nH]c(N)n1  inactive
5  CCN(CC)CCCC(C)Nc1c2ccc(Cl)cc2nc2ccc(OC)cc12 (stereo not drawn)  inactive
6  CN1[C@@H]2CC[C@H]1CC(OC(=O)C(O)c1ccccc1)C2 (stereo partly drawn)  inactive
7  CN(C)CCCO[C@@H]1[C@H]2OC(C)(C)O[C@H]2O[C@@H]1C(O)CO (stereo partly drawn)  inactive
8  CCOC(CN1CCN(CC(C)C(=O)c2ccccc2)CC1)c1ccccc1 (stereo not drawn)  inactive

Shift focus to the following entry.
Ask: GET activity change, negative = cytotoxicity | system: Es-2 | item: Oc1cccc(O)c1
Reply: inactive
